Hey, just so you know, these numbers are from patent US5455222A.

System: Staphylococcus aureus (Sa)
procedureDetails: Minimum inhibitory concentration (MIC), bacteria in nutrient agar
Assay type: cell-based, Staphylococcus aureus ATCC 6538
conditionDetails: nutrient agar pH 6.8, 30° C., 48 hours
Procedure: The minimum inhibitory concentration (MIC) for the compounds listed in Table I is determined for 9 bacteria, using nutrient agar, and 7 yeast and fungi, using malt yeast agar. A one percent solution of the test compound is prepared in a mixture of acetone and water. […] The inoculated petri plates are incubated at 30° C. for 48 hours and then read to determine if the test compound which is incorporated into the agar prevented growth of the respective bacteria. […]
Items are presented alongside their recorded log10 of MIC.
// stored as log10 of MIC expressed in µg/mL

Would you please look over these solved cases?
- smilesEntry: "N#CSCSc1nnnn1-c1ccc(F)cc1"
  reportedMetric: "log10 of MIC"
  quantitativeReadout: 1.40
- smilesEntry: "N#CSCSc1nnnn1-c1ccc(C#N)cc1"
  reportedMetric: "log10 of MIC"
  quantitativeReadout: 1.30
- smilesEntry: "N#CSCSc1nnnn1C1CCCCC1"
  reportedMetric: "log10 of MIC"
  quantitativeReadout: 1.40
- smilesEntry: "COc1ccc(-n2nnnc2SCSC#N)cc1"
  reportedMetric: "log10 of MIC"
  quantitativeReadout: 1.40
- smilesEntry: "N#CSCSc1nnnn1-c1ccc(Cl)cc1"
  reportedMetric: "log10 of MIC"
  quantitativeReadout: 1.40

Known value: Staphylococcus aureus (Sa) log10 of MIC of the compound "Cc1ccc(-n2nnnc2SCSC#N)cc1" equals 1.40

Here "CC(C)(C)c1ccc(-n2nnnc2SCSC#N)cc1" was tested on Staphylococcus aureus (Sa), and its log10 of MIC came to 1.70

Result for "N#CSCSc1nnnn1-c1ccc(Br)cc1" , tested on Staphylococcus aureus (Sa), log10 of MIC: 2.70

// compound "N#CSCSc1nnnn1-c1ccccc1" , assay Staphylococcus aureus (Sa), log10 of MIC value: 1.40

Staphylococcus aureus (Sa) assay, compound "N#CSCSc1nnnn1-c1cccc(Cl)c1" , recorded log10 of MIC = 2.40

For "N#CSCSc1nnnn1-c1ccc([N+](=O)[O-])cc1" on Staphylococcus aureus (Sa), measured log10 of MIC was 2.00

Observed log10 of MIC on Staphylococcus aureus (Sa), entry "Cc1cccc(-n2nnnc2SCSC#N)c1" , equals 1.40
